Entry source: paper PMC5840523

Listing: remaining at 1 h of selected compounds
assay: Human liver microsomal stability; format: in vitro ADME; settings: pooled human liver microsomes
Be sure to follow the number with its unit.

O=[N+]([O-])c1cn2c(n1)[S+]([O-])CC(OCc1ccc(-c3ccc(OC(F)(F)F)cc3)cn1)C2 (centres unmarked) : 78%
O=[N+]([O-])c1cn2c(n1)[S@@+]([O-])C[C@H](OCc1ccc(OC(F)(F)F)cc1)C2 : 91%

So what's the measured remaining at 1 h for this one? `O=[N+]([O-])c1cn2c(n1)[S@+]([O-])C[C@H](OCc1ccc(OC(F)(F)F)cc1)C2`
88%

Look at this compound and give its reported remaining at 1 h. `O=[N+]([O-])c1cn2c(n1)[S@@+]([O-])C[C@@H](OCc1ccc(OC(F)(F)F)cc1)C2`
93%

Query (compound): `O=[N+]([O-])c1cn2c(n1)[S@+]([O-])C[C@@H](OCc1ccc(OC(F)(F)F)cc1)C2` ; field requested: remaining at 1 h
82%

* * *

Quick reference for IC50 among some compounds
system: Trypanosoma cruzi; assay: T. cruzi growth inhibition (University of Antwerp); type: cell-based; conditions: mean of 2 to 5 determinations
Quick note: give the figure in µM, leave out the unit.

O=[N+]([O-])c1cn2c(n1)[S+]([O-])CC(Oc1ccc(OC(F)(F)F)cc1)C2 (stereo not shown) [Compound 36] : 7.7

Request body: readout IC50, system Trypanosoma cruzi, query O=[N+]([O-])c1cn2c(n1)[S+]([O-])CC(Oc1ccc(OC(F)(F)F)cc1)C2 (stereo not shown) [Compound 33] . Return the value.
2.1

I'm curious: which IC50 was measured for O=[N+]([O-])c1cn2c(n1)[S+]([O-])CC(OCc1ccc(-c3ccc(OC(F)(F)F)cc3)cn1)C2 (stereo not shown) [Compound 39] tested on Trypanosoma cruzi?
0.14

What value of IC50 on Trypanosoma cruzi does O=[N+]([O-])c1cn2c(n1)[S+]([O-])CC(Oc1ccc(C(F)(F)F)cn1)C2 (stereo not shown) [Compound 34] have?
4.1

* * *

assay: Mouse liver S9 stability; assay type: in vitro ADME; settings: CD-1, mouse, mouse liver S9 subcellular fraction, half-life in mouse liver S9 fraction; read-out: Mouse S9 t1/2
Catalogue of half-life values
Could you give me the number in h? Just the number is fine.

Example results:
O=[N+]([O-])c1cn2c(n1)[S+]([O-])CC(OCc1ccc(OCc3ccccc3)cc1)C2 (stereo not drawn) [Compound 9] : 2.88
O=[N+]([O-])c1cn2c(n1)OC[C@@H](Oc1cc(-c3ccc(C(F)(F)F)nc3)ccn1)C2 [Compound 22] : 2.43
COc1ccc(-c2ccc(O[C@@H]3COc4nc([N+](=O)[O-])cn4C3)nc2)cn1 [Compound 21] : 3.98

Proceeding to the next compound to report its half-life.
Name the recorded half-life for O=[N+]([O-])c1cn2c(n1)S(=O)(=O)CC(OCc1ccc(OC(F)(F)F)cc1)C2 (stereo not drawn) [Compound 19] .
4.97

* * *

test: Mouse pharmacokinetics (plasma, whole blood, brain); format: in vivo, male CD-1 mice; conditions: male, CD-1, mouse; whole blood; oral, corrected doses 62, 50, 78, 49 mg/kg for 9, 12, 17, 19
Listing of entries alongside the reported Tmax.
Respond with the bare value in h.

Some compounds with recorded Tmax:
O=[N+]([O-])c1cn2c(n1)S(=O)(=O)CC(OCc1ccc(OC(F)(F)F)cc1)C2 (stereo not shown) [Compound 19] : 2
O=[N+]([O-])c1cn2c(n1)[S+]([O-])CC(OCc1ccc(OCc3ccccc3)cc1)C2 (stereo not shown) [Compound 9] : 2
O=[N+]([O-])c1cn2c(n1)OC[C@@H](NCc1ccc(OC(F)(F)F)cc1)C2 [Compound 17] : 0.5

Which Tmax is reported for this compound? O=[N+]([O-])c1cn2c(n1)[S+]([O-])CC(OCc1ccc(OC(F)(F)F)cc1)C2 (stereo not shown) [Compound 12]
4

* * *

assay: in vitro; settings: dog, MDCK-MDR1, Permeability Papp
Papp at 1 h, 3 µM listing for selected molecules.
Please state the figure in nm/s; there is no need to write the unit.

Use these answered entries as a reference point.
O=[N+]([O-])c1cn2c(n1)[S+]([O-])CC(OCc1ccc(OC(F)(F)F)cc1)C2 (stereo not drawn) : 798
CN1CC(OCc2ccc(OCc3ccccc3)cc2)Cn2nc([N+](=O)[O-])cc21 (stereo not drawn) : 363
O=[N+]([O-])c1cn2c(n1)OC[C@@H](NCc1ccc(OC(F)(F)F)cc1)C2 : 804
O=[N+]([O-])c1cn2c(n1)S(=O)(=O)CC(OCc1ccc(OC(F)(F)F)cc1)C2 (stereo not drawn) : 624
COc1ccc(-c2ccc(O[C@@H]3COc4nc([N+](=O)[O-])cn4C3)nc2)cn1 : 769

Look up Papp at 1 h, 3 µM: `O=[N+]([O-])c1cn2c(n1)OC[C@@H](Oc1cc(-c3ccc(C(F)(F)F)nc3)ccn1)C2`
793

Report Papp at 1 h, 3 µM for CC1(COCc2ccc(OCc3ccccc3)cc2)Cn2cc([N+](=O)[O-])nc2[S+]1[O-] (stereo not drawn) please.
651

* * *

experiment: Mouse pharmacokinetics (plasma, whole blood, brain); type: in vivo, male CD-1 mice; conditions: male, CD-1, mouse, po, 78 mg/kg; over plasma, whole blood, brain; read-out: oral half-life
property name: half-life

So what does the record say about half-life for `O=[N+]([O-])c1cn2c(n1)OC[C@@H](NCc1ccc(OC(F)(F)F)cc1)C2` ?
1.2 to 1.5 h

* * *

system: T. b. rhodesiense; assay: T. b. rhodesiense growth inhibition (University of Antwerp); format: cell-based, Trypanosoma brucei rhodesiense; settings: mean of 2 to 5 determinations; read-out: IC50 T. b. rhod
property name: IC50 (µM)
// note: answer is a bare numeric in µM

See these solved cases before continuing.
O=[N+]([O-])c1cn2c(n1)[S+]([O-])CC(Oc1ccc(OC(F)(F)F)cc1)C2 (centres unmarked) [Compound 33] : 0.98
O=[N+]([O-])c1cn2c(n1)[S+]([O-])CC(Oc1ccc(C(F)(F)F)cn1)C2 (centres unmarked) [Compound 37] : 9.9

Param readout = IC50; param system = T. b. rhodesiense; param query = O=[N+]([O-])c1cn2c(n1)[S+]([O-])CC(OCc1ccc(-c3ccc(OC(F)(F)F)cc3)cn1)C2 (centres unmarked) [Compound 35] ; response: value
0.023

Observed IC50 on T. b. rhodesiense for O=[N+]([O-])c1cn2c(n1)[S+]([O-])CC(OCc1ccc(-c3ccc(OC(F)(F)F)cc3)cn1)C2 (centres unmarked) [Compound 39] , please.
0.1

Give the reported IC50 for O=[N+]([O-])c1cn2c(n1)[S+]([O-])CC(OCc1ccc(OC(F)(F)F)cc1)C2 (centres unmarked) [Compound 12] (system: T. b. rhodesiense).
0.25

* * *

experiment: Mouse pharmacokinetics (plasma, whole blood, brain); assay type: in vivo, male CD-1 mice; conditions: male, CD-1, mouse; whole blood; oral, corrected doses 62, 50, 78, 49 mg/kg for 9, 12, 17, 19
property name: AUC(0-t)
Answer by giving the amount and then stating its unit.

O=[N+]([O-])c1cn2c(n1)S(=O)(=O)CC(OCc1ccc(OC(F)(F)F)cc1)C2 (stereo not shown) : 23700 ng·h/mL
O=[N+]([O-])c1cn2c(n1)OC[C@@H](NCc1ccc(OC(F)(F)F)cc1)C2 : 42200 ng·h/mL
O=[N+]([O-])c1cn2c(n1)[S+]([O-])CC(OCc1ccc(OCc3ccccc3)cc1)C2 (stereo not shown) : 494 ng·h/mL

We now examine a further compound.
Fill blank: measured AUC(0-t) of the compound O=[N+]([O-])c1cn2c(n1)[S+]([O-])CC(OCc1ccc(OC(F)(F)F)cc1)C2 (stereo not shown) is ____.
63500 ng·h/mL

* * *

experiment: in vitro; settings: dog, MDCK-MDR1, Permeability Papp
Reported Papp at 1 h, 3 µM values follow for various molecules
# output: bare number, implied unit nm/s

Solved cases (3 shown):
O=[N+]([O-])c1cn2c(n1)SC(COCc1ccc(OCc3ccccc3)cc1)C2 (stereo not shown) [Compound 15] : 583
O=[N+]([O-])c1cn2c(n1)[S+]([O-])CC(OCc1ccc(OCc3ccccc3)cc1)C2 (stereo not shown) [Compound 9] : 771
CC1(COCc2ccc(OCc3ccccc3)cc2)Cn2cc([N+](=O)[O-])nc2S1 (stereo not shown) [Compound 20] : 465

# context switch: different molecule, same Papp at 1 h, 3 µM
Bench note: what Papp at 1 h, 3 µM did CSc1ccc(OCc2ncc([N+](=O)[O-])n2C)cc1 [Compound 4, fexinidazole, reference compound] show?
732

* * *

test system: Trypanosoma cruzi; assay: T. cruzi growth inhibition (University of Antwerp); assay type: cell-based; conditions: mean of 2 to 5 determinations
property name: IC50

Check out these entries, answers already filled in.
O=[N+]([O-])c1cn2c(n1)[S+]([O-])CC(OCc1ccc(OC(F)(F)F)cc1)C2 (stereo not shown) [Compound 38] : 9.1 µM
O=[N+]([O-])c1cn2c(n1)[S+]([O-])CC(Oc1ccc(C(F)(F)F)cn1)C2 (stereo not shown) [Compound 37] : 12 µM
O=[N+]([O-])c1cn2c(n1)[S+]([O-])CC(OCc1ccc(OC(F)(F)F)cc1)C2 (stereo not shown) [Compound 12] : 1.5 µM

Consider now this further molecule.
What reported IC50 corresponds to O=[N+]([O-])c1cn2c(n1)[S+]([O-])CC(OCc1ccc(-c3ccc(OC(F)(F)F)cc3)cn1)C2 (stereo not shown) [Compound 35] on Trypanosoma cruzi?
0.067 µM
